// provenance: patent US20110195022A1

testSystem: T1, human CD20 (human, UniProt P11836 1-297)
T1 construct: whole, on cells; Tetra-spanin type membrane antigen, always presented on cells; also called CD20 wildtype; wild type CD20
T1 sequence (looked up): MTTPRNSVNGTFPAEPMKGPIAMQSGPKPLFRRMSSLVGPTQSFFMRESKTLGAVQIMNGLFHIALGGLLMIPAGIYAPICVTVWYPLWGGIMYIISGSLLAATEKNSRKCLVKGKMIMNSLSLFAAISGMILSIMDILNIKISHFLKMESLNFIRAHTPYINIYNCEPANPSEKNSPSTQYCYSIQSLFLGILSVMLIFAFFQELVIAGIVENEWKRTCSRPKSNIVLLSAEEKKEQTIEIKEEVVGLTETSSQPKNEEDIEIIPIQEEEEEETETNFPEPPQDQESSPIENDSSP
testDescription: flow cytometry titration on BJAB cells, apparent Kd from the dose-response curve
experimentalReadout: pKd
Reminder that pKd means the negative base-10 logarithm of the concentration expressed in mol/L.

Problem: Record request: pKd value, item muCD20-20 (antibody, mouse IgG1, kappa, V domains shown, Murine monoclonal antibody purified from hybridoma supernatant; also called murine CD20-20) VH: QVQLQQSGAELARPGASVKLSCKASGYTFTSYWMHWVKQRPGQGLEWIGAIYPGDGDTRYTQKFKGKATLTADKSSYTAYMQLSSLASEDSAVYYCARSPDFYGSGYDFDYWGQGTTLTVSS VL: DIKMTQSPSSMYTSLGERVTITCKASQDINSFLSWFQQKPGKSPKTLIYRAYRLVDGVPSRFSGSGSGQDYSLTISSLEFEDMGIYYCLQSGAFPLTFGAGTKLELKR
Result: 9.23

Problem: Entry to check: muCD20-4 (antibody, mouse IgG2a, kappa, V domains shown, Murine monoclonal antibody purified from hybridoma supernatant (ATCC PTA-10485 or PTA-10561); also called murine CD20-4) VH: EVKVEESGGGLVKTGGSMKLSCVASGFSFNNYWMNWVRQSPEKGLEWVAEIRLKSNNYATHYVESVKGRFTISRDDSKSSVYLQMNNLRAEDTGIYYCTGWDDYAMDHWGQGISVTVSS VL: DIVMTQSQKFMSTSVGDRVSVNCKASQNVGTNVAWYQQKPRQSPKGLIYSASFRYSGVPDRFTGSGSGTDFTLTIFNVQSDDLAEYFCQQYNNYPLTFGGGTKLEIKR
Result: 9.01

Problem: Entry to check: chCD20-4 (antibody, V domains shown, Chimeric antibody: murine CD20-4 variable regions cloned in frame with human constant regions (plasmids pchCD20-4HCN and pchCD20-4LCZ), expressed in HEK-293T; the murine VL/VH entries 5 and 6 are used; a huIgG1 isotype control was used beside it; also called chimeric CD20-4) VH: EVKVEESGGGLVKTGGSMKLSCVASGFSFNNYWMNWVRQSPEKGLEWVAEIRLKSNNYATHYVESVKGRFTISRDDSKSSVYLQMNNLRAEDTGIYYCTGWDDYAMDHWGQGISVTVSS VL: DIVMTQSQKFMSTSVGDRVSVNCKASQNVGTNVAWYQQKPRQSPKGLIYSASFRYSGVPDRFTGSGSGTDFTLTIFNVQSDDLAEYFCQQYNNYPLTFGGGTKLEIKR
Result: 9.33

Problem: Entry to check: chCD20-20 (antibody, V domains shown, Chimeric antibody: murine CD20-20 variable regions with human constant regions (equivalent plasmids to chCD20-4), expressed in HEK-293T; the murine VL/VH entries 7 and 8 are used; also called chimeric CD20-20) VH: QVQLQQSGAELARPGASVKLSCKASGYTFTSYWMHWVKQRPGQGLEWIGAIYPGDGDTRYTQKFKGKATLTADKSSYTAYMQLSSLASEDSAVYYCARSPDFYGSGYDFDYWGQGTTLTVSS VL: DIKMTQSPSSMYTSLGERVTITCKASQDINSFLSWFQQKPGKSPKTLIYRAYRLVDGVPSRFSGSGSGQDYSLTISSLEFEDMGIYYCLQSGAFPLTFGAGTKLELKR
Result: 9.38

Problem: Entry to check: huCD20-4 (antibody, human IgG1, kappa, V domains shown, Resurfaced antibody expressed in HEK-293T cells; also called humanized CD20-4; resurfaced CD20-4) VH: EVQVEESGGGLVQPGGSMRLSCVASGFSFNNYWMNWVRQSPGKGLEWVAEIRLKSNNYATHYVDSVKGRFTISRDDSKSSVYLQMNNLRAEDTGIYYCTGWDDYAMDHWGQGISVTVSS VL: DIQMTQSPSTMSTSVGDRVSVNCKASQNVGTNVAWYQQKPGKSPKGLIYSASFRYSGVPSRFTGSGSGTDFTLTIFNVQPDDLAEYFCQQYNNYPLTFGGGTKLEIKR
Result: 9.34
